# assayed_system: T1, mouse GPC3 on stably transfected SK-HEP-1 cells (mouse, UniProt Q8CFZ4 25-553)
# T1 construct: whole, on cells; also called SK-HEP-1::mouse GPC3; murine GPC3
# T1 sequence (Q8CFZ4 25-553 limits assumed): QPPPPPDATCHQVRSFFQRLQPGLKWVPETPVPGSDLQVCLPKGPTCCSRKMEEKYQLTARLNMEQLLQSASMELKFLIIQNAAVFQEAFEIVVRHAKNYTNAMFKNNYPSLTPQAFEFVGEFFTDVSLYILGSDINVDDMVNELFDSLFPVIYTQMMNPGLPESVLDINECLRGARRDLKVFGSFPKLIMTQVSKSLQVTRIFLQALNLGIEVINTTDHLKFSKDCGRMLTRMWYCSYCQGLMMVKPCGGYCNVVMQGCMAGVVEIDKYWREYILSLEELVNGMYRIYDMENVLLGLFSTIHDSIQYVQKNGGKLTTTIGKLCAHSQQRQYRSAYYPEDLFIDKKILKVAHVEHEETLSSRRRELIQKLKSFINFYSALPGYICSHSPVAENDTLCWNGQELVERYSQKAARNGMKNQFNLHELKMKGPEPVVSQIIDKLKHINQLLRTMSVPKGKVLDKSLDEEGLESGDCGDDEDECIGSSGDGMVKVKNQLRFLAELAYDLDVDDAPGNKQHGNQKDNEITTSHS
# method_summary: MSD-based (ECL) cell binding assay on transfected SK-HEP-1 cells
quantity: EC50 (nM)
The reply should contain only the number, in nM.

| binder | units_symbol | reported_measurement |
| --- | --- | --- |
| lipocalin mutein of SEQ ID NO: 12 (designed binder, hNGAL (Lcn2) mutein; also called optimized GPC3 specific lipocalin mutein) QDSTSDLIPAPPLSKVPLQQNFQDNQFQGKWYVVGRAGNVALREDKDPPKMRATIYELKEDKSYDVTNVVFAGKKCKYSIGTFVPGSQPGEFTLGRIKSPPGNTANLVRVVSTNYNQHAMVFFKEVYQNREIFFIILYGRTKELTSELKENFIRFSKSLGLPENHIVFPVPIDQCIDGSAWSHPQFEK | nM | 5.3 |

// below: EC50 requested for another binder
Query: Could you tell me which EC50 is on file for lipocalin mutein of SEQ ID NO: 7 (designed binder, hNGAL (Lcn2) mutein; also called optimized GPC3 specific lipocalin mutein) QDSTSDLIPAPPLSKVPLQQNFQDNQFQGKWYVVGVAGNGMLREDKDPLKMRATIYELKEDKSYDVTSVAFRNKKCHYKIGTFVPGSQPGEFTLGQIKSGPGETSNLVRVVSTNYNQHAMVFFKEVRQNREWFFITLYGRTKELTSELKENFIRFSKSLGLPENHIVFPVPIDQCIDGSAWSHPQFEK ?
Result: 4.8
